Catalogue of compounds with associated IC50
test system: rabbit reticulocyte ribosomes; assay: in-vitro translation assay, rabbit reticulocyte ribosomes; type: biochemical; details: mammalian cytosolic ribosomes (rabbit)
Express the result in µM but write the number alone.

INSERT INTO assay_data (compound, target_or_system, measured_quantity, result) VALUES
  ('NC[C@H]1O[C@H](O[C@H]2[C@H](O[C@@H]3O[C@H](CNC=O)[C@@H](O)[C@H]3O)[C@@H](O)[C@H](N)C[C@@H]2N)[C@H](N)[C@@H](O)[C@@H]1O [DC130]', 'rabbit reticulocyte ribosomes', 'IC50', 152),
  ('CNC1C(OC2C(N)CC(N)C(O)C2OC2OC(CO)C(O)C2O)OC(CN)C(O)C1O (stereo not drawn) [DC-100]', 'rabbit reticulocyte ribosomes', 'IC50', 90);

Shifting focus to the compound that follows.
Query string: # IC50 lookup, item NC[C@H]1O[C@H](O[C@H]2[C@H](O[C@@H]3O[C@H](CO)[C@@H](O)[C@H]3O)[C@@H](O)[C@H](N)C[C@@H]2N)[C@H](N)C[C@@H]1O [DC047]
Result string: 157

###

tested on: E coli wild type; experiment: MIC by broth microdilution, wild type E coli; assay type: cell-based; conditions: Escherichia coli, WT; Table 4 (Example 3); read-out: MIC E. coli WT
Counter-ions that a name gives are not always drawn.
measured quantity: MIC (µg/mL)
Express the result in µg/mL but write the number alone.

Recorded MIC, per entry:
INSERT INTO measurements (compound, measured_quantity, display_unit, result) VALUES
  ('NCC1OC(OC2C(CO)OC(OC3C(O)C(N)CC(N)C3OC3OC(CN)C(O)C(O)C3NC=O)C2O)C(N)C(O)C1O (stereo not drawn) [Compound 182, 2′-N-Formamido-neomycin]', 'MIC', 'µg/mL', 2),
  ('CCNC1C(OC2C(N)CC(N)C(O)C2OC2OC(CO)C(OC3OC(CN)C(O)C(O)C3N)C2O)OC(CO)C(O)C1O (stereo not drawn) [Compound 127]', 'MIC', 'µg/mL', 2),
  ('NCC1OC(OC2C(N)CC(N)C(O)C2OC2OC(CO)C(OC3OC(CN)C(O)C(O)C3N)C2O)CC(O)C1O (stereo not drawn) [Compound 173, 2′-Deamino-neomycin acetate salt]', 'MIC', 'µg/mL', 1),
  ('CCCNC1C(OC2C(N)CC(N)C(O)C2OC2OC(CO)C(OC3OC(CN)C(O)C(O)C3N)C2O)OC(CO)C(O)C1O (stereo not drawn) [Compound 128, 2′-N-Propyl-paromomycin acetate salt]', 'MIC', 'µg/mL', 2);

Query string: # MIC lookup, item CNC1C(OC2C(N)CC(N)C(O)C2OC2OC(CO)C(OC3OC(CN)C(O)C(O)C3N)C2O)OC(CN)C(O)C1O (stereo not drawn) [Compound 171, 2′-N-Methyl-neomycin acetate salt]
Result string: 0.5

###

Catalogue of compounds with associated log10(MIC)
system: M. smegmatis SZ380; assay: MIC by broth microdilution, M. smegmatis; settings: Mycolicibacterium smegmatis, SZ380, read-out: MIC M. smegmatis SZ380 WT, SZ380 WT; Table 5 (Example 3)
Structures can show the parent of a compound that is named as a salt.
Log scale reminder: MIC in µg/mL, then log10 taken.

Query string: # log10(MIC) lookup, item NCC1OC(OC2C(CO)OC(OC3C(O)C(N)CC(N)C3OC3OC(CN)C(O)C(O)C3NC=O)C2O)C(N)C(O)C1O (stereo not drawn)
Result string: 0.00

Query string: # log10(MIC) lookup, item CN[C@@H]1[C@@H](O)[C@@H](O[C@@H]2[C@@H](O)[C@H](O[C@H]3OC(CNCCO)=CC[C@H]3N)[C@@H](N)C[C@H]2NC(=O)[C@@H](O)CCN)OC[C@]1(C)O [PLZ, plazomicin, reference compound]
Result string: -0.60

Query string: # log10(MIC) lookup, item NC[C@@H]1O[C@H](O[C@H]2[C@@H](O)[C@H](O[C@@H]3[C@@H](O)[C@H](N)C[C@H](N)[C@H]3O[C@H]3O[C@H](CO)[C@@H](O)[C@H](O)[C@H]3N)O[C@@H]2CO)[C@H](N)[C@@H](O)[C@@H]1O [paromomycin, reference compound]
Result string: 0.00

Query string: # log10(MIC) lookup, item NC[C@H]1O[C@H](O[C@H]2[C@H](O[C@@H]3O[C@H](CO)[C@@H](O)[C@H]3O)[C@@H](O)[C@H](N)C[C@@H]2N)[C@H](N)[C@@H](O)[C@@H]1O [Ribostamycin, ribostamycin, reference compound]
Result string: 0.90

Query string: # log10(MIC) lookup, item NCC1OC(OC2C(CO)OC(OC3C(O)C(N)CC(N)C3OC3OC(CN)C(O)C(O)C3O)C2O)C(N)C(O)C1O (stereo not drawn)
Result string: -0.30

Query string: # log10(MIC) lookup, item CCCNC1C(OC2C(N)CC(N)C(O)C2OC2OC(CO)C(OC3OC(CN)C(O)C(O)C3N)C2O)OC(CO)C(O)C1O (stereo not drawn) [Compound 128, 2′-N-Propyl-paromomycin acetate salt]
Result string: 0.30

Query string: # log10(MIC) lookup, item CCNC1[C@@H](OC2C(N)CC(N)[C@@H](O)[C@H]2O[C@@H]2O[C@H](CO)[C@H](O)C2O)OC(CN)[C@@H](O)[C@@H]1O (stereo partly drawn)
Result string: 1.81

###

Catalogue of compounds with associated MIC AG042 MRSA AAC(6′)-I ANT(4′)-I APH(2′)
tested on: MRSA; experiment: MIC by broth microdilution, MRSA isolates; type: cell-based; conditions: clinical isolate AG042, AAC(6′)-I ANT(4′)-I APH(2′)

INSERT INTO results (compound, target_or_system, result) VALUES
  ('CCCC(O)C1OC(OC2C(N)CC(N)C(O)C2OC2OC(CO)C(OC3OC(CN)C(O)C(O)C3N)C2O)C(N)C(O)C1O (centres unmarked) [DC143]', 'MRSA', '>64 µg/mL'),
  ('NC[C@@H]1O[C@H](O[C@H]2[C@@H](O)[C@H](O[C@@H]3[C@@H](O)[C@H](N)C[C@H](N)[C@H]3O[C@H]3O[C@H](CN)[C@@H](O)[C@H](O)[C@H]3O)O[C@@H]2CO)[C@H](N)[C@@H](O)[C@@H]1O', 'MRSA', '>128 µg/mL'),
  ('NC[C@H]1O[C@H](O[C@H]2[C@H](O[C@@H]3O[C@H](CNC=O)[C@@H](O)[C@H]3O)[C@@H](O)[C@H](N)C[C@@H]2N)[C@H](N)[C@@H](O)[C@@H]1O', 'MRSA', '>128 µg/mL');

Shifting focus to the compound that follows.
Query string: # MIC AG042 MRSA AAC(6′)-I ANT(4′)-I APH(2′) lookup, item CC(C)(O)[C@H]1O[C@H](O[C@H]2[C@H](O[C@@H]3O[C@H](CO)[C@@H](O[C@H]4O[C@@H](CN)[C@@H](O)[C@H](O)[C@H]4N)[C@H]3O)[C@@H](O)[C@H](N)C[C@@H]2N)[C@H](N)[C@@H](O)[C@@H]1O
Result string: >128 µg/mL

###

test system: E coli wild type; test: MIC by broth microdilution, wild type E coli; type: cell-based; conditions: Escherichia coli, clinical isolate AG003; Table 1 (Example 3); read-out: MIC E coli AG003
Where a name gives a salt, the structure may show the parent alone.
measured quantity: MIC (µg/mL)
Express the result in µg/mL but write the number alone.

Query string: # MIC lookup, item CCNC1C(OC2C(N)CC(N)C(O)C2OC2OC(CO)C(OC3OC(CN)C(O)C(O)C3N)C2O)OC(CN)C(O)C1O (stereo not shown) [Compound 172, 2′-N-Ethyl-neomycin acetate salt]
Result string: 1

Query string: # MIC lookup, item CCNC1C(OC2C(N)CC(N)C(O)C2OC2OC(CO)C(OC3OC(CN)C(O)C(O)C3N)C2O)OC(CO)C(O)C1O (stereo not shown)
Result string: 16

###

Catalogue of compounds with associated MIC
test system: M. smegmatis SZ380; assay: MIC by broth microdilution, M. smegmatis; details: Mycolicibacterium smegmatis, SZ380, read-out: MIC M. smegmatis SZ380 WT, SZ380 WT; Table 5 (Example 3)
Structures can show the parent of a compound that is named as a salt.

Recorded MIC, per entry:
INSERT INTO results (compound, result) VALUES
  ('NCC1OC(OC2C(N)CC(N)C(O)C2OC2OC(CO)C(OC3OC(CN)C(O)C(O)C3N)C2O)CC(O)C1O (stereo not drawn) [Compound 173, 2′-Deamino-neomycin acetate salt]', '0.25 µg/mL'),
  ('CCNC1C(OC2C(N)CC(N)C(O)C2OC2OC(CO)C(OC3OC(CN)C(O)C(O)C3N)C2O)OC(CO)C(O)C1O (stereo not drawn)', '4 µg/mL');

Shifting focus to the compound that follows.
Query string: # MIC lookup, item CNC1C(OC2C(N)CC(N)C(O)C2OC2OC(CO)C(OC3OC(CN)C(O)C(O)C3N)C2O)OC(CN)C(O)C1O (stereo not drawn) [Compound 171, 2′-N-Methyl-neomycin acetate salt]
Result string: < 0.063 µg/mL

// provenance: patent US11466044B2
